Tested system: Vasopressin V1a receptor (Homo sapiens, UniProt P37288); further: in other assays of this panel Not Active means under 50% inhibition at 10 µM
Sequence (P37288 whole entry): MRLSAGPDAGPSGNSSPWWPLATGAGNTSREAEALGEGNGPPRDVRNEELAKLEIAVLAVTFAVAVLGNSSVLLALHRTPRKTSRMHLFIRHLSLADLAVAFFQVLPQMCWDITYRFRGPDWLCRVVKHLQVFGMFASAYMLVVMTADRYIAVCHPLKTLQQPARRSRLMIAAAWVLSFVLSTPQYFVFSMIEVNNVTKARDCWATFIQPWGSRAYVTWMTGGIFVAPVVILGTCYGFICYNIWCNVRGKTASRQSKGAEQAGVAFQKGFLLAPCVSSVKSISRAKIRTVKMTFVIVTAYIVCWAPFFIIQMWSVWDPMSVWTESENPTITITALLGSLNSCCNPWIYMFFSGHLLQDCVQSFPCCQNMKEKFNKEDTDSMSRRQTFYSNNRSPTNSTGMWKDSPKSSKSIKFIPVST
Type: cell membranes, Membrane
Measurement context: hek293

Molecule smiles | IC50
O=c1ncn2nc(Sc3ccc(F)cc3F)ccc2c1-c1c(Cl)cccc1Cl | Not Active
COc1cc2c3cc1Oc1cc(ccc1O)C[C@@H]1c4c(cc(OC)c(O)c4Oc4ccc(cc4)C[C@@H]3N(C)CC2)CC[N+]1(C)C.[Cl-] | Not Active
Cc1ccc2cc3c(ccc4ccccc43)c3c2c1CC3 | Not Active

* * *

Experiment summary: DRUGMATRIX: Imidazoline I2, Central radioligand binding (ligand: [3H] Idazoxan)
Assay type: cell membranes, Rattus norvegicus, Wistar, Cerebral cortex, Membrane
Measurement context: Not Active = under 50% inhibition at 10 µM; read-out: IC50
Metric name: IC50 (nM)
Record the value in nM, omitting the unit from your answer.

Compound | Numeric value
CN(C)CCCN1c2ccccc2Sc2ccc(Cl)cc21 | 2670
CC(C)N1CCN(c2ccc(OCC3COC(Cn4cncn4)(c4ccc(Cl)cc4Cl)O3)cc2)CC1 (centres undefined) | 2230
CN(C)CCCN1c2ccccc2Sc2ccccc21 | 1100

Qu. Request the reported IC50 associated with CC(C)[C@@]1(NC(=O)[C@@H]2C[C@@H]3c4cccc5[nH]cc(c45)C[C@H]3N(C)C2)O[C@@]2(O)[C@@H]3CCCN3C(=O)[C@H](Cc3ccccc3)N2C1=O.CS(=O)(=O)O [DIHYDROERGOCRISTINE MESYLATE]
Ans. 5.43

* * *

Tested system: Mitogen-activated protein kinase 3 (Homo sapiens)
Sequence (P27361 whole entry): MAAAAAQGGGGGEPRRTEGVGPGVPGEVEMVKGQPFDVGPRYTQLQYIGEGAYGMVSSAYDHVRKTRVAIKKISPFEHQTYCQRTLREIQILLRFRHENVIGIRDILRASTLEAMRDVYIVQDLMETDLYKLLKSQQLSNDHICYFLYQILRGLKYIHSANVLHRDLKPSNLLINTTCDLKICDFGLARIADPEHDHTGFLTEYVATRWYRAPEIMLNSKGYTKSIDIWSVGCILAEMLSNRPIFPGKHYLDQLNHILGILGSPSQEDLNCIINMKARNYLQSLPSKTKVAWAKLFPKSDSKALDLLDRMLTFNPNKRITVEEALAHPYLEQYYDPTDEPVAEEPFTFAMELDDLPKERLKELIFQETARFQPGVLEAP
Experiment summary: DRUGMATRIX: Protein Serine/Threonine Kinase, ERK1 enzyme inhibition (substrate: Myelin Basic Protein)
Design: species or system Escherichia coli
Measurement context: Not Active = under 50% inhibition at 10 µM
Metric name: IC50

# example entries with known answers
Molecule | IC50
CC[C@@H](CO)NC(=O)[C@@H]1C=C2c3cccc4[nH]cc(c34)C[C@H]2N(C)C1 | Not Active
CC(C)C(=O)Nc1ccc([N+](=O)[O-])c(C(F)(F)F)c1 [FLUTAMIDE] | Not Active
CCOC(=O)N1CCC(=C2c3ccc(Cl)cc3CCc3cccnc32)CC1 | Not Active
COc1cc2c3cc1Oc1cc(ccc1O)C[C@@H]1c4c(cc(OC)c(O)c4Oc4ccc(cc4)C[C@@H]3N(C)CC2)CC[N+]1(C)C.[Cl-] | Not Active
O=c1ncn2nc(Sc3ccc(F)cc3F)ccc2c1-c1c(Cl)cccc1Cl | Not Active
CNCCCN1c2ccccc2CCc2ccccc21 | Not Active
Cc1noc(NS(=O)(=O)c2ccc(N)cc2)c1C | Not Active
Nc1nc2c(ncn2CCC(CO)CO)c(=O)[nH]1 | Not Active

Read the next record carefully.
Qu. // returns reported IC50 for input O=c1[nH]c(=O)n([C@H]2C[C@H](O)[C@@H](CO)O2)cc1I
Ans. Not Active

* * *

Tested system: Mitogen-activated protein kinase 3 (Homo sapiens)
Experiment summary: DRUGMATRIX: Protein Serine/Threonine Kinase, ERK1 enzyme inhibition (substrate: Myelin Basic Protein)
Parameters: species or system Escherichia coli
Measurement context: Not Active = under 50% inhibition at 10 µM; read-out: IC50
Metric name: pIC50
Quick note: pIC50 means taking -log10 of the concentration in moles per liter.

Qu. // returns reported pIC50 for input Nc1nc2nc[nH]c2c(=S)[nH]1 [THIOGUANINE]
Ans. 5.26
